test_description: Stability in Sprague-Dawley rat serum assessed as parent compound remaining at 10 ug/ml measured immediately by LC-MS/MS analysis
Format: ADME, cell-free
conditions: read-out: Stability
Square brackets hold non-standard residues; d marks the D form. Peptide text beside a SMILES is read from it. Arg(Me) = CNC(=N)NCCC[C@H](N)C(=O)O; d4Pal = N[C@H](Cc1ccncc1)C(=O)O; azaGly = NNC(=O)O
endpoint_label: remaining at 0 min, 10 ug/ml (%)
Give the quantity in %, number only.

Look over these answered cases.
CC(C)C[C@H](NC(=O)CNC(=O)[C@H](Cc1ccccc1)NC(=O)[C@H](CO)NC(=O)[C@H](CC(N)=O)NC(=O)[C@H](Cc1c[nH]c2ccccc12)NC(=O)[C@H](CC(N)=O)NC(=O)[C@@H](N)Cc1ccc(O)cc1)C(=O)N[C@@H](CCCNC(=N)N)C(=O)N[C@@H](Cc1ccccc1)C(N)=O
100
CNC(=N)NCCC[C@H](NC(=O)[C@H](CC(C)C)NC(=O)NNC(=O)[C@H](Cc1ccccc1)NC(=O)c1ccccc1)C(=O)N[C@@H](Cc1c[nH]c2ccccc12)C(N)=O
100

Consider the record given below.
response.value for CNC(=N)NCCC[C@H](NC(=O)[C@H](CC(C)C)NC(=O)NNC(=O)[C@H](Cc1ccccc1)NC(=O)[C@H](CO)NC(=O)[C@H](CC(N)=O)NC(=O)[C@@H](Cc1ccncc1)NC(=O)[C@H](N)Cc1ccc(O)cc1)C(=O)N[C@@H](Cc1ccccc1)C(N)=O [KISS1-305] (H-[dY][d4Pal]NSF[azaGly]L[Arg(Me)]F-NH2) (field: remaining at 0 min, 10 ug/ml) = 100

====

Recorded remaining at 0.5 h, 10 ug/ml by entry
test_description: Stability in Sprague-Dawley rat serum assessed as parent compound remaining at 10 ug/ml measured after 30 mins by LC-MS/MS analysis
Format: ADME, cell-free
conditions: read-out: Stability
Square brackets hold non-standard residues; d marks the D form. Peptide text beside a SMILES is read from it. Arg(Me) = CNC(=N)NCCC[C@H](N)C(=O)O; d4Pal = N[C@H](Cc1ccncc1)C(=O)O; azaGly = NNC(=O)O

response.value for CNC(=N)NCCC[C@H](NC(=O)[C@H](CC(C)C)NC(=O)NNC(=O)[C@H](Cc1ccccc1)NC(=O)c1ccccc1)C(=O)N[C@@H](Cc1c[nH]c2ccccc12)C(N)=O (field: remaining at 0.5 h, 10 ug/ml) = 99%

response.value for CNC(=N)NCCC[C@H](NC(=O)[C@H](CC(C)C)NC(=O)NNC(=O)[C@H](Cc1ccccc1)NC(=O)[C@H](CO)NC(=O)[C@H](CC(N)=O)NC(=O)[C@@H](Cc1ccncc1)NC(=O)[C@H](N)Cc1ccc(O)cc1)C(=O)N[C@@H](Cc1ccccc1)C(N)=O [KISS1-305] (H-[dY][d4Pal]NSF[azaGly]L[Arg(Me)]F-NH2) (field: remaining at 0.5 h, 10 ug/ml) = 95%

response.value for CC(C)C[C@H](NC(=O)CNC(=O)[C@H](Cc1ccccc1)NC(=O)[C@H](CO)NC(=O)[C@H](CC(N)=O)NC(=O)[C@H](Cc1c[nH]c2ccccc12)NC(=O)[C@H](CC(N)=O)NC(=O)[C@@H](N)Cc1ccc(O)cc1)C(=O)N[C@@H](CCCNC(=N)N)C(=O)N[C@@H](Cc1ccccc1)C(N)=O [KISSPEPTIN-10] (field: remaining at 0.5 h, 10 ug/ml) = < 0.5%
